- tested target: P-glycoprotein (P-gp/ABCB1) (Homo sapiens, UniProt P08183)
- Construct: full-length human P-gp; MDR1 baculovirus in High-Five insect cell total membranes (ATPase); transfected MDR19-HEK293 cells (calcein efflux)
- Sequence (P08183 whole entry): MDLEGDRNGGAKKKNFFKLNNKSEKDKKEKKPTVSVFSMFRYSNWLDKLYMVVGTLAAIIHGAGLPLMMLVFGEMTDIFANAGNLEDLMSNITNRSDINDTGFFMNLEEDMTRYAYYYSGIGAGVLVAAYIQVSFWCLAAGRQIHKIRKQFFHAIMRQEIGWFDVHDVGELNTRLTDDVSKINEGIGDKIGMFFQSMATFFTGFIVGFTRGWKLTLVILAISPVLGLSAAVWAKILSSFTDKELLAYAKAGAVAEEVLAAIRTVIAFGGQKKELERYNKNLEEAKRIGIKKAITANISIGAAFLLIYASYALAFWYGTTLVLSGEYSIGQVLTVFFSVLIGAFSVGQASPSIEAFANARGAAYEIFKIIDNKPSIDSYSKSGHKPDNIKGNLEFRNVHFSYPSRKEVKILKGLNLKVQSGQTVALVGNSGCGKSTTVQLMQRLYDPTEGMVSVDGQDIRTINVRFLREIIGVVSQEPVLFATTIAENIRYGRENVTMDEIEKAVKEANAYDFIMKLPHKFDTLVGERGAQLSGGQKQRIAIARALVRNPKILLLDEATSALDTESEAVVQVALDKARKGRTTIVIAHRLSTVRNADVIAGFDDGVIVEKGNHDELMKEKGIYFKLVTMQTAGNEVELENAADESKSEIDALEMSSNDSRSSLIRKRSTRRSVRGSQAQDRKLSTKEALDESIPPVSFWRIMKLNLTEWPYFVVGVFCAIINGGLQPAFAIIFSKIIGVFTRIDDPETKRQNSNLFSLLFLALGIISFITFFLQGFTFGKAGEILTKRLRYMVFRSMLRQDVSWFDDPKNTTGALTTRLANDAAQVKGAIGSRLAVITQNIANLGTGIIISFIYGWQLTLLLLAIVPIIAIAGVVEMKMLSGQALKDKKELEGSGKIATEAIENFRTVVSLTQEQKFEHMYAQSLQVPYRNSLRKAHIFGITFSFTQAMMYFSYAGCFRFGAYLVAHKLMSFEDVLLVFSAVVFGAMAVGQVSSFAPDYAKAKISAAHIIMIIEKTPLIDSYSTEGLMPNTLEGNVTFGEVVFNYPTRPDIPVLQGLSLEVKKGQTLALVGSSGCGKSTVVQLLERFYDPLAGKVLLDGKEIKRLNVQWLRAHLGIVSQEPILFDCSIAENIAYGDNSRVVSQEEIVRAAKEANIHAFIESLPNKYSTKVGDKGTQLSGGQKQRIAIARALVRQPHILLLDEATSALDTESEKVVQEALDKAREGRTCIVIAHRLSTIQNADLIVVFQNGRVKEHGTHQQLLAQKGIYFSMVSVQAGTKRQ
- assay protocol: vanadate-sensitive ATPase activity, endpoint inorganic phosphate assay, insect cell membranes
pEC50: −log10 of the molar value.

[
  {
    "chemical smiles": "CC#CC(=O)N[C@H]1CCCN(c2c(F)cc(C(N)=O)c3[nH]c(C)c(C)c23)C1",
    "pEC50": "~5.35"
  }
]
